- studySystem: T1, RIG-I CTD (human, UniProt O95786 792-925)
- T1 sequence: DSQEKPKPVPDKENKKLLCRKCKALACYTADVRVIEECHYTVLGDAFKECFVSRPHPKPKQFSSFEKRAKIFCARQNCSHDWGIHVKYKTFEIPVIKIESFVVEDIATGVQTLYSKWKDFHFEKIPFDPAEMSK
- methodSummary: ITC
measurementLabel: pKd
Keep in mind that pKd stands for -log10 of concentration in molar terms.

Lookup result for 5'-ppp-dsRNA 12-mer (dsRNA, 5'-triphosphate on both strands) RNA 1: GACGCUAGCGUC RNA 2: GACGCUAGCGUC ; measured pKd: 6.67
